Target: G protein-coupled receptor 88 (GPR88) (Homo sapiens)
Experiment: GPR88 functional assay: EC50 of Table 2 (GTPγS assay and cAMP HTRF assay described; table does not say which)
Assay type: cell-based
Details: class symbol; read-out: Range (EC50)
pEC50: −log10 of the molar value.
# reported pEC50; entries follow
endpoint label: pEC50

* CC[C@H](C)COc1ccc([C@@H](NC(=O)[C@@H](C)c2ccccc2)[C@@H](C)O)cc1 | 6.70 to 7.00
* CCCC(C)COc1ccc([C@H](CNCc2c[nH]c3ccccc23)NC(=O)[C@@H](C)c2ccccc2)cc1 (stereo partly shown) | 6.70 to 7.00
* CCCC(C)COc1ccc([C@H](CNC(=O)[C@H](N)[C@H](C)CC)NC(=O)[C@@H](C)c2ccccc2)cc1 (stereo partly shown) | 7.00 to 7.41
* CCCC(C)COc1ccc([C@H](CNC[C@H](C)N)NC(=O)[C@@H](C)c2ccccc2)cc1 (stereo partly shown) | 6.70 to 7.00
* CCCC(C)COc1ccc([C@H](CNC(=O)[C@@H](N)CC)NC(=O)[C@@H](C)c2ccccc2)cc1 (stereo partly shown) | 7.00 to 7.41
* CC[C@H](C)COc1ccc([C@H](CN)NC(=O)[C@@H](C)c2ccccc2)cc1 | 7.00 to 7.41
* CCCC(C)COc1ccc([C@H](CNC(=O)[C@@H](N)[C@H](C)CC)NC(=O)[C@@H](C)c2ccccc2)cc1 (stereo partly shown) | 6.70 to 7.00

###

Molecular target: G protein-coupled receptor 88 (GPR88) (Homo sapiens, UniProt Q9GZN0)
Sequence (Q9GZN0 whole entry, species assumed): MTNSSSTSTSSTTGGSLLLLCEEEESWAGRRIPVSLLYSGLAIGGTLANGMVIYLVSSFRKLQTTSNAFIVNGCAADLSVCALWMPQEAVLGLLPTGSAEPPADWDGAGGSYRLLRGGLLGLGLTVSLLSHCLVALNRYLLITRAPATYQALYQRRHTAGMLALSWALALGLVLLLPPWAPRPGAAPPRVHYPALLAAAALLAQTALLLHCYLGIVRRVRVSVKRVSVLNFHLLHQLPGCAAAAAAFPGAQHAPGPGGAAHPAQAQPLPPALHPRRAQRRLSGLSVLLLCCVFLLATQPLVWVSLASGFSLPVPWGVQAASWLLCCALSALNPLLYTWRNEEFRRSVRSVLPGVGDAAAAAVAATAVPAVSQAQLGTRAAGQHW
Test: GPR88 functional assay: EC50 of Table 2 (GTPγS assay and cAMP HTRF assay described; table does not say which)
Type: cell-based
Details: class symbol; read-out: Range (EC50)
Procedure: 96 well GTPγS assay plates were purchased from Perkin Elmer. Wheat Germ Agglutinin PVT SPA beads and ^35S-GTPγS were purchased from Amersham GDP, GTPγS and all buffer reagents were from Sigma. 384 well white NBS plates were purchased from corning. Pertussis toxin was purchased from Calbiochem. […] The GTPγS assay buffer consisted of 10 mM MgCl2, 180 mM NaCl, 200 uM GDP, 0.167 mg/mL DTT, 1 mM EGTA and 20 mM HEPES pH7.4. […] Non-specific binding was determined by the addition of cold GTPγS to control wells. […]
endpoint label: EC50

- CCCC(C)COc1ccc([C@H](CNC(=O)[C@H](C)N)NC(=O)[C@@H](C)c2ccccc2)cc1 (stereo partly shown) [Example 23]: 39 to 99 nM
- CCCC(C)COc1ccc([C@H](CN(C)C)NC(=O)[C@@H](C)c2ccccc2)cc1 (stereo partly shown) [Example 6]: 39 to 99 nM
- CCCC(C)COc1ccc([C@H](CNC(=O)[C@H](N)C2CC2)NC(=O)[C@@H](C)c2ccccc2)cc1 (stereo partly shown) [Example 30]: 100 to 200 nM
- CCCC(C)COc1ccc([C@H](CNC(=O)[C@H](N)CC(C)C)NC(=O)[C@@H](C)c2ccccc2)cc1 (stereo partly shown) [Example 20]: 39 to 99 nM

###

Target: G protein-coupled receptor 88 (GPR88) (Homo sapiens, UniProt Q9GZN0)
Test: GPR88 functional assay: EC50 of Table 2 (GTPγS assay and cAMP HTRF assay described; table does not say which)
Format: cell-based
Conditions: class symbol; read-out: Range (EC50)
pEC50: −log10 of the molar value.
Item-by-item account of pEC50
endpoint label: pEC50

* CCCC(C)COc1ccc(C(CN2CCN(C)CC2)NC(=O)[C@@H](C)c2ccccc2)cc1 (mixture of isomers) | 6.70 to 7.00
* CCCC(C)COc1ccc([C@H](CNC(=O)[C@@H](C)N)NC(=O)[C@@H](C)c2ccccc2)cc1 (stereo partly shown) | 6.70 to 7.00
* CCCC(C)COc1ccc([C@H](CNC(=O)[C@H](N)Cc2cscn2)NC(=O)[C@@H](C)c2ccccc2)cc1 (stereo partly shown) | 6.70 to 7.00
* CCCC(C)COc1ccc([C@H](CNCC2CC2)NC(=O)[C@@H](C)c2ccccc2)cc1 (stereo partly shown) | 7.00 to 7.41
* CCCC(C)COc1ccc([C@H](CNCC2(N)CCCC2)NC(=O)[C@@H](C)c2ccccc2)cc1 (stereo partly shown) | 7.00 to 7.41
* CCCC(C)COc1ccc([C@H](CNCc2ccncc2)NC(=O)[C@@H](C)c2ccccc2)cc1 (stereo partly shown) | 6.70 to 7.00
* CCCC(C)COc1ccc([C@H](CNC(=O)[C@@H](N)CCC)NC(=O)[C@@H](C)c2ccccc2)cc1 (stereo partly shown) | 7.00 to 7.41
